Give inhibition for every item shown.
Biological target: Small conductance calcium-activated potassium channel protein 3 (Homo sapiens)
Experiment: Inhibition of Kca2.3 channel expressed in HEK293 cells at 30 uM by thallium flux assay
Type: cell-based
The number alone won't do; follow it with the unit.

Reference set, count: 3
smiles-entry | system-tested | inhibition
FC(F)(F)c1cccc(CNc2cc(Cl)nc3ccnn23)c1 | Small conductance calcium-activated potassium channel protein 3 (Homo sapiens) | 80%
Clc1ccc(CNc2cc(Cl)nc3ccnn23)cc1 | Small conductance calcium-activated potassium channel protein 3 (Homo sapiens) | 30%
Clc1cc(NCc2ccccc2Cl)n2nccc2n1 | Small conductance calcium-activated potassium channel protein 3 (Homo sapiens) | 62%

Please state inhibition for every compound in the list that follows.
1. Clc1cc(NCc2ccccc2)n2nccc2n1
2. Cc1ccccc1CNc1cc(Cl)nc2ccnn12
3. Clc1cc(NCc2ccc(Cl)c(Cl)c2)n2nccc2n1
4. FC(F)(F)Oc1cccc(CNc2cc(Cl)nc3ccnn23)c1

["113%", "75%", "25%", "71%"]

###

Biological target: Small conductance calcium-activated potassium channel protein 2 (Homo sapiens)
Sequence (Q9H2S1 whole entry): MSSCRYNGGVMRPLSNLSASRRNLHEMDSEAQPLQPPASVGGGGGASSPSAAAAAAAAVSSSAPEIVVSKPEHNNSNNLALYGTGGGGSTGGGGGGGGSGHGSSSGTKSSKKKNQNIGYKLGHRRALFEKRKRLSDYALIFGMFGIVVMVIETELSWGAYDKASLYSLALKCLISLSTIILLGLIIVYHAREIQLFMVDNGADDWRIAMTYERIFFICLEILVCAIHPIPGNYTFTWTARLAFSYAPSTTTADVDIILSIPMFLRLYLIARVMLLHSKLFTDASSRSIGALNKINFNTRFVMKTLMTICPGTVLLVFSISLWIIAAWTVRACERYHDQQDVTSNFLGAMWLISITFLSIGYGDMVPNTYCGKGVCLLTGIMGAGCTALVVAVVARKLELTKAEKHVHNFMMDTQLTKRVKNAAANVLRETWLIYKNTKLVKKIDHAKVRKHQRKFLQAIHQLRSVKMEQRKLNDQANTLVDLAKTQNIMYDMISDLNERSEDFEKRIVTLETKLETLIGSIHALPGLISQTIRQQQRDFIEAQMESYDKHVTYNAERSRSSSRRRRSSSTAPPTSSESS
Test: Inhibition of Kca2.2 channel expressed in HEK293 cells by thallium flux assay
Give pIC50 for every item shown.
One number for each entry, as −log10 of the molar value.

smiles-entry | reported-endpoint | number
Clc1cc(NCc2ccccc2)n2nccc2n1 | pIC50 | 5.96

Fill in reported pIC50 for this entry: Clc1cc(NCc2cccs2)n2nccc2n1
6.28

###

Give IC50 for every item shown.
Target: Small conductance calcium-activated potassium channel protein 3 (Homo sapiens)
Test: Inhibition of Kca2.3 channel expressed in HEK293 cells by thallium flux assay
Format: cell-based
One number for each entry, in µM.

Reference set, count: 4
smiles-entry | IC50 (µM)
FC(F)(F)c1cccc(CNc2cc(Cl)nc3ccnn23)c1 | 14.6
Cc1cccc(CNc2cc(Cl)nc3ccnn23)c1 | 10.7
Clc1cc(NCc2ccccc2)n2nccc2n1 | 1.1
FC(F)(F)Oc1cccc(CNc2cc(Cl)nc3ccnn23)c1 | 11

Kindly consider the entry below.
// output IC50; input FC(F)(F)Oc1ccc(CNc2cc(Cl)nc3ccnn23)cc1 ; system Small conductance calcium-activated potassium channel protein 3 (Homo sapiens)
15.4

###

Target: Small conductance calcium-activated potassium channel protein 3 (Homo sapiens)
Experiment: Inhibition of Kca2.3 channel expressed in HEK293 cells at 30 uM by thallium flux assay
Type: cell-based
reported-endpoint: inhibition (%)
Give bare numbers, in %.

smiles-entry | unit-tag | inhibition
Clc1cc(NCc2ccc(Oc3ccccc3)cc2)n2nccc2n1 | % | 23
Cc1ccc(CNc2cc(Cl)nc3ccnn23)cc1 | % | 46
Cc1cccc(CNc2cc(Cl)nc3ccnn23)c1 | % | 91
Clc1cccc(CNc2cc(Cl)nc3ccnn23)c1 | % | 113
FC(F)(F)Oc1ccc(CNc2cc(Cl)nc3ccnn23)cc1 | % | 62

Please state inhibition for every compound in the list that follows.
1. Clc1cc(Cl)cc(CNc2cc(Cl)nc3ccnn23)c1
2. FC(F)(F)c1ccccc1CNc1cc(Cl)nc2ccnn12
3. O=[N+]([O-])c1cccc(CNc2cc(Cl)nc3ccnn23)c1
4. O=[N+]([O-])c1ccc(CNc2cc(Cl)nc3ccnn23)cc1
5. FC(F)(F)Oc1ccccc1CNc1cc(Cl)nc2ccnn12
6. Clc1cc(NCc2cccs2)n2nccc2n1
7. FC(F)(F)c1ccc(CNc2cc(Cl)nc3ccnn23)cc1

1. 43
2. 50
3. 96
4. 25
5. 87
6. 105
7. 43

Fill in reported inhibition for this entry: COc1ccccc1CNc1cc(Cl)nc2ccnn12
74

###

Give log10(IC50) for every item shown.
Biological target: Small conductance calcium-activated potassium channel protein 3 (Homo sapiens)
Experiment: Inhibition of Kca2.3 channel expressed in HEK293 cells by thallium flux assay
Format: cell-based
Note the log scale: values are log10 of IC50 expressed in µM.

molecule | log10(IC50)
Clc1cc(NCc2ccccc2Cl)n2nccc2n1 | 1.28
COc1ccccc1CNc1cc(Cl)nc2ccnn12 | 1.20
Clc1cc(NC(Cc2ccccc2)c2ccccc2)n2nccc2n1 (configuration not stated) | 0.88
C[C@@H](Nc1cc(Cl)nc2ccnn12)c1ccccc1 | 0.00
O=[N+]([O-])c1cccc(CNc2cc(Cl)nc3ccnn23)c1 | 0.90
Cc1ccccc1CNc1cc(Cl)nc2ccnn12 | 1.16
Clc1cccc(CNc2cc(Cl)nc3ccnn23)c1 | 0.72
Clc1cc(NCc2cccs2)n2nccc2n1 | -0.46

Kindly consider the entry below.
Fill in reported log10(IC50) for this entry: FC(F)(F)Oc1ccccc1CNc1cc(Cl)nc2ccnn12
1.00

###

Give pIC50 for every item shown.
Target: Small conductance calcium-activated potassium channel protein 3 (Homo sapiens)
Test: Inhibition of Kca2.3 channel expressed in HEK293 cells by electrophysiology assay
Assay type: cell-based
Give bare numbers, as −log10 of the molar value.

smiles-entry | pIC50
Clc1cc(NCc2cccs2)n2nccc2n1 | 6.24

Fill in reported pIC50 for this entry: Clc1cc(NCc2ccccc2)n2nccc2n1
5.80

###

Give IC50 for every item shown.
Molecular target: Small conductance calcium-activated potassium channel protein 3 (Homo sapiens, UniProt Q9UGI6)
Sequence (Q9UGI6 whole entry): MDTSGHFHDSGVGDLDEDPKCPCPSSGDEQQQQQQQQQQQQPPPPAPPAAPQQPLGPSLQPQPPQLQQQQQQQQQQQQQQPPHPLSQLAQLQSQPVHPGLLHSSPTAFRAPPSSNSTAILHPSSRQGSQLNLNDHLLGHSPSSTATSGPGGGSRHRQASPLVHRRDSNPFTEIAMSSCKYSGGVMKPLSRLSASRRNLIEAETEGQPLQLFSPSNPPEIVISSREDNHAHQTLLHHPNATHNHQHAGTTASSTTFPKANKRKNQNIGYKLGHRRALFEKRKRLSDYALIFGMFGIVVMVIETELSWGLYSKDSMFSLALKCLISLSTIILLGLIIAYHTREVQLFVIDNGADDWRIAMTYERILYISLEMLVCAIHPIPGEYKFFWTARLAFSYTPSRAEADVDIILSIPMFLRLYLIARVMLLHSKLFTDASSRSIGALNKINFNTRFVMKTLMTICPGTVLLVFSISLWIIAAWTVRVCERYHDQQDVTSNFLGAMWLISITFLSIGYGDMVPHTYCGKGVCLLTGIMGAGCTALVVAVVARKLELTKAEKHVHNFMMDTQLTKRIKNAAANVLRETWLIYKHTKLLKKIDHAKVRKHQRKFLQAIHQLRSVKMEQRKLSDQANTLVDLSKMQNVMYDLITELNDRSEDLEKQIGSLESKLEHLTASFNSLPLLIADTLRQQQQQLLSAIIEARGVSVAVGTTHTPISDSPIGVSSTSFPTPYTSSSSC
Assay: Inhibition of Kca2.3 channel expressed in HEK293 cells by thallium flux assay
Type: cell-based

smiles-entry | IC50
Clc1cc(NCc2ccc(Oc3ccccc3)cc2)n2nccc2n1 | > 30 µM
Clc1cc(NCc2ccc(Cl)c(Cl)c2)n2nccc2n1 | > 30 µM

Fill in reported IC50 for this entry: FC(F)(F)c1ccc(CNc2cc(Cl)nc3ccnn23)cc1
> 30 µM
